Values were extracted from paper PMC7901699.

Sequence of the target: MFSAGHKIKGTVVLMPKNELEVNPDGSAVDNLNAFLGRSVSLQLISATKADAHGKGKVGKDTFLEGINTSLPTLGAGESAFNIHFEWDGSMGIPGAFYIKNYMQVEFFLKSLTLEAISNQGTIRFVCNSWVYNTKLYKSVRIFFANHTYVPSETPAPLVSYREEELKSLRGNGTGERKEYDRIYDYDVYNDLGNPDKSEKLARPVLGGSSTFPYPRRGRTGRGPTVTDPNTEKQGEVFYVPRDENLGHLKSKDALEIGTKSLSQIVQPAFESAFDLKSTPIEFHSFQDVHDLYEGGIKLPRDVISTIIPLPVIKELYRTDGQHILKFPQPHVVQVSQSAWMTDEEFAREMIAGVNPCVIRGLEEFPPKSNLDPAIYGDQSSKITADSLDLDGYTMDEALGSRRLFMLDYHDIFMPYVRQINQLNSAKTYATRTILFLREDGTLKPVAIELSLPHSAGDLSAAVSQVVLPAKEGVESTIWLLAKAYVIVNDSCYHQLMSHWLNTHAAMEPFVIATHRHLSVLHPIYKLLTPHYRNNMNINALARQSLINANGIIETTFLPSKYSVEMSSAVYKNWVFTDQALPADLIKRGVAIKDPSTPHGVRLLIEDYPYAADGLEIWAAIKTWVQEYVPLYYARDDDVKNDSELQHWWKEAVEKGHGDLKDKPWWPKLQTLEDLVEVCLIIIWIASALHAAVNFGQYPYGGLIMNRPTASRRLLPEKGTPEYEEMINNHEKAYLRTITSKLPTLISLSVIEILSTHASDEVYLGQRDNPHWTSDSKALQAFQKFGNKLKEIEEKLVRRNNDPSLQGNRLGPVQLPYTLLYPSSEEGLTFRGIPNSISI
Listed compounds paired with reported pIC50
Note: pIC50 values are expressed as the negative base-10 logarithm of concentration in M.

Examples with their reported pIC50 follow.
O=C1N=C(N2CCOCC2)S/C1=C\c1cn(-c2ccccc2)nc1-c1ccc(Br)cc1 [Compound 10] | 5.34
COc1ccc(-c2nn(-c3ccccc3)cc2/C=C2\SC(N3CCOCC3)=NC2=O)cc1 [Compound 8] | 5.33

Lab note: next compound to report on.
Exercise: What pIC50 value was documented for this compound, O=C1N=C(N2CCCCC2)S/C1=C\c1cn(-c2ccccc2)nc1-c1ccc(Br)cc1 [Compound 9] ?
Solution: 5.25

* * *

Listed compounds paired with reported IC50
Target: ovine COX-1 (Ovis aries, UniProt P05979)
Sequence (P05979 25-600): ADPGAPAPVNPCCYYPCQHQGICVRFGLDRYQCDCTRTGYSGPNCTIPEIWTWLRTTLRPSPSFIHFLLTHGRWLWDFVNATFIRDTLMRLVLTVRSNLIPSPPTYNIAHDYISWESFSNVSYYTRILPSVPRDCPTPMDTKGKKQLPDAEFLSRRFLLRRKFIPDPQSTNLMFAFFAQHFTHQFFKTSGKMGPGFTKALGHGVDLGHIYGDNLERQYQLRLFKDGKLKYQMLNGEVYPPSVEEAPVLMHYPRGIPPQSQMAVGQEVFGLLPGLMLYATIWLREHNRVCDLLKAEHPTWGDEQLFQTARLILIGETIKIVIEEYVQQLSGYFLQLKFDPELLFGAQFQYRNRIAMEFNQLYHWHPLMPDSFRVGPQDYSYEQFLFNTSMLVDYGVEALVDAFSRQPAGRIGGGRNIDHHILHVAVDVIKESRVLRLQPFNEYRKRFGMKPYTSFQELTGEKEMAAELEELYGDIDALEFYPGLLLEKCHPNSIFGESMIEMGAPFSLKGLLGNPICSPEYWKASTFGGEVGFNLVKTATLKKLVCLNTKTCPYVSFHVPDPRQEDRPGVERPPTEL

O=C1N=C(N2CCCCC2)S/C1=C\c1cn(-c2ccccc2)nc1-c1ccccc1 [Compound 3] | 7.86 µM
O=C1N=C(N2CCCCC2)S/C1=C\c1cn(-c2ccccc2)nc1-c1ccc(Br)cc1 [Compound 9] | 14 µM
COc1ccc(-c2nn(-c3ccccc3)cc2/C=C2\SC(N3CCOCC3)=NC2=O)cc1 [Compound 8] | 12.4 µM

Exercise: Form entry - test system: ovine COX-1 (Ovis aries, UniProt P05979); read-out: IC50; compound: O=C1N=C(N2CCOCC2)S/C1=C\c1cn(-c2ccccc2)nc1-c1ccc(Br)cc1 [Compound 10]
Solution: 11.3 µM

Exercise: Entry to check: COc1ccc(-c2nn(-c3ccccc3)cc2/C=C2\SC(N3CCCCC3)=NC2=O)cc1 [Compound 7]
Solution: 10.3 µM

Exercise: Entry to check: O=C1N=C(N2CCOCC2)S/C1=C\c1cn(-c2ccccc2)nc1-c1ccccc1 [Compound 4]
Solution: 11.3 µM

Exercise: Entry to check: Cc1nn(-c2ccccc2)c(Cl)c1/C=C1\SC(N2CCOCC2)=NC1=O [Compound 2]
Solution: 8.14 µM

* * *

Listed molecules paired with reported pIC50
Molecular target: 15-LOX (Glycine max, UniProt P08170)
Construct: purchased Cayman chemicals 760700
Experiment: In vitro 15-LOX inhibition assay (lipoxygenase inhibitor screening kit, Cayman)
Assay type: biochemical
Conditions: mean of three determinations
Note: pIC50 values are expressed as the negative base-10 logarithm of concentration in M.

O=C1N=C(N2CCOCC2)S/C1=C\c1cn(-c2ccccc2)nc1-c1ccccc1 | 5.33
Cc1ccc(-c2nn(-c3ccccc3)cc2/C=C2\SC(N3CCCCC3)=NC2=O)cc1 | 5.37

Exercise: Form entry - test system: 15-LOX (Glycine max, UniProt P08170); read-out: pIC50; molecule: `Cc1nn(-c2ccccc2)c(Cl)c1/C=C1\SC(N2CCOCC2)=NC1=O`
Solution: 5.62

Exercise: Entry to check: `COc1ccc(-c2nn(-c3ccccc3)cc2/C=C2\SC(N3CCCCC3)=NC2=O)cc1`
Solution: 5.45

Exercise: Entry to check: `Cc1ccc(-c2nn(-c3ccccc3)cc2/C=C2\SC(N3CCOCC3)=NC2=O)cc1`
Solution: 5.55

Exercise: Entry to check: Cc1ccc(Cl)c(Nc2ccccc2C(=O)O)c1Cl [Meclofenamate Na, reference compound]
Solution: 5.25
